test system: NCI-H522; test: NCI tumour cell line growth inhibition, 48 h
Active and inactive are the calls of the source. Cut-off read from the data, not from the text of the source: active = GI50 up to about 1.1 µM and inactive = higher. Where a SMILES comes first, the peptide text is derived from it. [ ]: non-standard residue; d: D form. The star is where a group is joined. ξ: configuration not given here. NMeF = CN[C@@H](Cc1ccccc1)C(=O)O; NMeV = CN[C@H](C(=O)O)C(C)C; ξNMeN = CNC(CC(N)=O)C(=O)O; NMeA = CN[C@@H](C)C(=O)O; ξNMeV = CNC(C(=O)O)C(C)C; Boc = CC(C)(C)OC(=O)*
ASSAY_ENDPOINT: GI50

// solved cases for GI50 follow
{"columns": ["MOLECULE", "MEASURED_TARGET", "GI50"],
 "data": [
  ["C(#Cc1ccccc1)SC1=C(c2ccccc2)S/C(=C(\\SC#Cc2ccccc2)c2ccccc2)S1", "NCI-H522", "> 100 µM (inactive)"],
  ["COC(=O)[C@H](C)N(C)C(=O)C(CC(N)=O)N(C)C(=O)[C@H](Cc1ccccc1)N(C)C(=O)[C@@H]1CCCN1C(=O)[C@H](C(C)C)N(C)C(=O)C(C(C)C)N(C)C(=O)[C@@H](NC(=O)OC(C)(C)C)C(C)C (stereo partly drawn) (Boc-V[ξNMeV][NMeV]P[NMeF][ξNMeN][NMeA]-OMe)", "NCI-H522", "> 50 µM (inactive)"],
  ["CCC(C)(O)c1cn(-c2cccc(S(=O)(=O)O)c2)nn1 (stereo not drawn)", "NCI-H522", "> 100 µM (inactive)"],
  ["CCOC(=O)[C@H](CCCNC(=O)OC(C)(C)C)NCc1ccc(OC)c(OC)c1", "NCI-H522", "> 100 µM (inactive)"],
  ["Cc1cc(Br)cc(C)c1NC(=O)C(=O)Nn1c(S)nc2ccccc2c1=O", "NCI-H522", "> 100 µM (inactive)"],
  ["[O-][S+](Nc1ccccc1)c1ccc(N2CCOCC2)cc1 (stereo not drawn)", "NCI-H522", "32.8 µM (inactive)"]
]}

Incoming: So what does the record say about GI50 for CCC12C=CCN3CCC4(C(=C(C(=O)OC)C1)Nc1ccccc14)[C@H]32 (stereo partly drawn) ?
Outgoing: 22.1 µM (inactive)

Incoming: So what does the record say about GI50 for CCC[C@H](N[S+]([O-])c1ccc(C)cc1)C(C(=O)OCC)=C(c1ccccc1)c1ccccc1 (stereo partly drawn) ?
Outgoing: 17.3 µM (inactive)

====

test system: EKVX; assay: NCI tumour cell line growth inhibition, 48 h
The source made the active and inactive calls. Rule as the data show it: active = GI50 up to about 1.1 µM and inactive = higher. Where a SMILES comes first, the peptide text is derived from it. The star is where a group is joined. Boc = CC(C)(C)OC(=O)*
Give one outcome, nothing more. List: TRUE = active, FALSE = inactive

Answered examples (6):
{"columns": ["COMPOUND", "LABEL"],
 "data": [
  ["[N-]=[N+]=Nc1ccc(CCN2CCN(c3cccc(C(F)(F)F)c3)CC2)cc1I", "FALSE"],
  ["CCOc1ccc(NC2=NC(=O)C(CC(=O)Nc3ccccc3[N+](=O)[O-])S2)cc1 (stereo not drawn)", "FALSE"],
  ["COCCN(CCOC)C(=O)COc1c2cc(C(C)(C)C)cc1Cc1cc(C(C)(C)C)cc(c1OCC(=O)N(CCOC)CCOC)Cc1cc(C(C)(C)C)cc(c1OCC(=O)N(CCOC)CCOC)Cc1cc(C(C)(C)C)cc(c1OCC(=O)N(CCOC)CCOC)Cc1cc(C(C)(C)C)cc(c1OCC(=O)N(CCOC)CCOC)C2", "TRUE"],
  ["CC(NC(=O)C(NC(=O)OC(C)(C)C)C(C)C)C(=O)NCC(=O)O (stereo not drawn) (Boc-Val-Ala-Gly-OH; configuration not given here)", "FALSE"],
  ["COC(=O)C1=C(C)N(NC(=O)c2cccc(Cl)c2)C(C)(O)C12CCOC2=O (stereo not drawn)", "FALSE"],
  ["OCc1ccc(C2CC(c3ccco3)=NN2c2ccccc2)o1 (stereo not drawn)", "FALSE"]
]}

Incoming: Please let me know the test result on file for O=c1cccccc1NCCNc1cccccc1=O .
Outgoing: FALSE

Incoming: Please let me know the test result on file for COC(=O)[C@]1(c2cc3ccccc3n2S(=O)(=O)c2ccccc2)CC2CN(C(=O)OCc3ccccc3)C1C1OC(C)(C)OC21 (stereo partly drawn) .
Outgoing: FALSE

Incoming: Please let me know the test result on file for CCC(=O)N/N=C(\C=C\c1cccc(O)c1)c1sc(Nc2ccc(C)cc2[N+](=O)[O-])nc1C .
Outgoing: FALSE

Incoming: Please let me know the test result on file for O=C(O)C1(CC(CCCN2CCCCC2)c2ccccc2)CCCC1 (stereo not drawn) .
Outgoing: FALSE

Incoming: Please let me know the test result on file for NCCCCN(CCCN)Cc1ccccc1 .
Outgoing: FALSE

Incoming: Please let me know the test result on file for COc1ccc(/C=C/c2cc(OC)c(OC)c(OC)c2)cc1O [E-COMBRETASTATIN A-4] .
Outgoing: FALSE

Incoming: Please let me know the test result on file for O=C(O)c1ccccc1NC(c1ccccc1)c1ccc2cccnc2c1O (stereo not drawn) .
Outgoing: FALSE

Incoming: Please let me know the test result on file for CCNC1C2(CCCCC2)NC(=O)C12CCCCC2 (stereo not drawn) .
Outgoing: FALSE

Incoming: Please let me know the test result on file for COC(=O)c1c2n(c3ccccc13)C[C@H]1OC(C)(C)O[C@@H]21 .
Outgoing: FALSE

Incoming: Please let me know the test result on file for CCOc1ccc(NC(=O)CC2SC(Nc3ccc(C)cc3C)=NC2=O)cc1 (stereo not drawn) .
Outgoing: FALSE

Incoming: Please let me know the test result on file for N#Cc1c2ccc([N+](=O)[O-])cc2c(=O)n2c1[nH]c1ccc(C(F)(F)F)cc12 .
Outgoing: FALSE

Incoming: Please let me know the test result on file for O=C(O)C(=Cc1ccc(-c2ccc([N+](=O)[O-])cc2)o1)C(=O)O .
Outgoing: FALSE
